target: Plk1 (Homo sapiens, UniProt P53350); construct: in the presence of 15 nM Plk1 (A20-K338); test: Plk1 inhibition assay (radioactive-phosphate incorporation); settings: Ki(app) from [γ-33P]ATP incorporation, 25° C.
Sequence (P53350 20-338): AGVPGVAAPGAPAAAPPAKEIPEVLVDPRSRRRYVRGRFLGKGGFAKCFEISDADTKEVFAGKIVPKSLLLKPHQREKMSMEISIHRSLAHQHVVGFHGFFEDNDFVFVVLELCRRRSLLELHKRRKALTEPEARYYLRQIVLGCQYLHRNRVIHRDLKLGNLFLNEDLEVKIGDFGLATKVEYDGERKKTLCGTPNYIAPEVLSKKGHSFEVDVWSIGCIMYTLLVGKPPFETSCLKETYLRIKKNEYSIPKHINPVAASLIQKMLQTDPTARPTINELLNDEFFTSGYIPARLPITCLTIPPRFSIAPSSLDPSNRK
Listing of recorded Ki by entry.

mol=CC[C@@H]1c2nncn2-c2cnc(Nc3ccc(C(=O)NC)cc3F)nc2N1C1CCCC1 target_system="Plk1 (Homo sapiens, UniProt P53350)" reported_endpoint=Ki reading="< 10 nM"
mol=CC[C@@H]1c2nncn2-c2cnc(Nc3ccc(C(=O)NC)cc3COC)nc2N1C1CCCC1 target_system="Plk1 (Homo sapiens, UniProt P53350)" reported_endpoint=Ki reading="< 10 nM"
mol=CC[C@@H]1c2nncn2-c2cnc(Nc3ccc(C(F)(F)F)nc3)nc2N1C1CCCC1 target_system="Plk1 (Homo sapiens, UniProt P53350)" reported_endpoint=Ki reading="10 to 100 nM"

Next up:
Consider the compound CCNC(=O)c1ccc(Nc2ncc3c(n2)N(C2CCCC2)[C@H](CC)c2nncn2-3)c(OC)c1 and give its measured Ki. < 10 nM
